target: ProfilerPro Kinase Selectivity Assay Kit kinases (Homo sapiens, UniProt Q05513); format: biochemical; details: PKC zeta; 1 μM compound concentration
Each entry below lists one item and its recorded POC (Percent of control) PKC zeta value.
# number only, unit POC dropped from output

These recorded examples may help you get a feel for the data.
input_smiles	numeric_value
c1cnc(Nc2cccc3[nH]ncc23)c(-c2ncnc3[nH]cnc23)c1	102
COc1ccc(Nc2ncccc2-c2ncnc3[nH]cnc23)cn1	99
COc1ccc(Nc2ncc(CN3CCN(C(C)=O)CC3)cc2-c2nc(C)nc3[nH]cnc23)cn1	109
Cc1cnc(Nc2cccc3[nH]ccc23)c(-c2nc(C)nc(N)n2)c1	198

Continue with the next molecule.
query: Please indicate recorded POC (Percent of control) PKC zeta of COc1ccc(Nc2ncc(Cc3ccc(S(C)(=O)=O)cc3)cc2-c2nc(C)nc3[nH]cnc23)cn1 measured with ProfilerPro Kinase Selectivity Assay Kit kinases (Homo sapiens, UniProt Q05513).
result: 98
